assayed.system: c-Src SH2
assay: SH2 binding enrichment of the phosphorylated peptide, bacterial display (enrichment ratio); higher = better substrate or ligand; peptides without Tyr show the background
Collected SH2 binding enrichment values appear next to each entry.

Example cases with answers are listed next.
Noted for GLAELYEYKKK [CKAP5_Y1854] : its SH2 binding enrichment reads 0.671

SH2 binding enrichment measured on TFINKYQGKLF [HGD_Y249_V245F] = 0.629

***
So for RLRKFYLGKFL [KLB_Y906_YF] , the logged SH2 binding enrichment turned out to be 0.444

ALWYIYLHTRS [ENG_Y614_S615L] yielded SH2 binding enrichment of 0.521

// sample LFQAKYQIRYR [CRLF1_Y272] , its SH2 binding enrichment was 1.22

# SH2 binding enrichment (sequence: FSCLPYGRLAY [SLC52A2_Y305] ) is 0.455

Kindly note the recorded SH2 binding enrichment for TGEKLYQRKEF [ZNF283_Y627] , which is 0.456

Briefly, SH2 binding enrichment measured for GRTNIYKNKKD [SLC26A3_Y520] : 0.802

Reported SH2 binding enrichment for MKVPVYETPAG [PGM5_Y358] was 1.28

---

assayed.system: Fyn (UniProt P06241)
Sequence (P06241 whole entry, looked up): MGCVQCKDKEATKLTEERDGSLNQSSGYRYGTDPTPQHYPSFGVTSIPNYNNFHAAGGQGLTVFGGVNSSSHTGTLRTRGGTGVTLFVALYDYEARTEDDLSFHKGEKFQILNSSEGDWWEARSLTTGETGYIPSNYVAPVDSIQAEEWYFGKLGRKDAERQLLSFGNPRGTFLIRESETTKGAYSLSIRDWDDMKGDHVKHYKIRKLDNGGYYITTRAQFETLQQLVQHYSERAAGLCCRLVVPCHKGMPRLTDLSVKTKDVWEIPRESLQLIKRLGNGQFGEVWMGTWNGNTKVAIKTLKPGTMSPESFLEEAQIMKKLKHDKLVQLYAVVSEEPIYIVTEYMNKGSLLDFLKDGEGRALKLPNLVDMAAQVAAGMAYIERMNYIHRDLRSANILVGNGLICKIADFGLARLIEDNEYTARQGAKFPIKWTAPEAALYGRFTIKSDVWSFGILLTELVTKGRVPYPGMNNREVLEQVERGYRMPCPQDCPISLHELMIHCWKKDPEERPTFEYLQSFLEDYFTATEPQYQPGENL
assay: phosphorylation enrichment, bacterial display (enrichment ratio); higher = better substrate or ligand; peptides without Tyr show the background
Heads up, the class ranges for phosphorylation enrichment are Low: < 0.5; Mid: ≥ 0.5 and < 0.6; High: ≥ 0.6

Enquiry: Which bin, given its phosphorylation enrichment, does PYSEPYADYGG [APBA1_Y187] occupy?
Return: High

Enquiry: Please let me know in which category the item VVAHHYSFAPD [TNS3_Y601_Q600H] belongs.
Return: Mid

Enquiry: Looking at MFKPMYALFRT [HUWE1_Y4078_N4075K] , which class would you pick?
Return: High

Enquiry: Category of LERDIYNREEF [HLA-DPB1_Y59_Y57D] , please.
Return: High

Enquiry: Which category does the recorded phosphorylation enrichment put FTRNYYVWAVL [CYBA_Y88_R90W] in?
Return: High

---

Listing: SH2 binding enrichment of selected sequences
assayed.system: SHP2-C SH2
assay: SH2 binding enrichment of the phosphorylated peptide, bacterial display (enrichment ratio); higher = better substrate or ligand; peptides without Tyr show the background
Reply: number alone, nothing else.

Example entries begin here.
// SH2 binding enrichment lookup, sequence = PSNTDYPGPHS [TP63_Y171] , result: 0.58

Per the record, RSACTYLAPHL [PLK3_Y615_S618P] has SH2 binding enrichment of 0.648

New cases:
Lab note: measured SH2 binding enrichment of RSRQIYDAYIM [GRK3_Y109] was 0.727

Note to self: SH2 binding enrichment recorded for FLAVGYHQPHI [IDS_Y225_K227Q] was 1.25

Entry NYDLDYDSVQP [MYC_Y16] — recorded SH2 binding enrichment = 0.532

response.value for LIHLHYIRRDF [BBS4_Y43_K46R_YF] (field: SH2 binding enrichment) = 0.817

Per the records, this sequence ( PGRRFYVVACD [RNASE3_Y134] ) has SH2 binding enrichment equal to 0.569

---

assayed.system: EPHB1 (UniProt P54762)
Sequence (P54762 whole entry, looked up): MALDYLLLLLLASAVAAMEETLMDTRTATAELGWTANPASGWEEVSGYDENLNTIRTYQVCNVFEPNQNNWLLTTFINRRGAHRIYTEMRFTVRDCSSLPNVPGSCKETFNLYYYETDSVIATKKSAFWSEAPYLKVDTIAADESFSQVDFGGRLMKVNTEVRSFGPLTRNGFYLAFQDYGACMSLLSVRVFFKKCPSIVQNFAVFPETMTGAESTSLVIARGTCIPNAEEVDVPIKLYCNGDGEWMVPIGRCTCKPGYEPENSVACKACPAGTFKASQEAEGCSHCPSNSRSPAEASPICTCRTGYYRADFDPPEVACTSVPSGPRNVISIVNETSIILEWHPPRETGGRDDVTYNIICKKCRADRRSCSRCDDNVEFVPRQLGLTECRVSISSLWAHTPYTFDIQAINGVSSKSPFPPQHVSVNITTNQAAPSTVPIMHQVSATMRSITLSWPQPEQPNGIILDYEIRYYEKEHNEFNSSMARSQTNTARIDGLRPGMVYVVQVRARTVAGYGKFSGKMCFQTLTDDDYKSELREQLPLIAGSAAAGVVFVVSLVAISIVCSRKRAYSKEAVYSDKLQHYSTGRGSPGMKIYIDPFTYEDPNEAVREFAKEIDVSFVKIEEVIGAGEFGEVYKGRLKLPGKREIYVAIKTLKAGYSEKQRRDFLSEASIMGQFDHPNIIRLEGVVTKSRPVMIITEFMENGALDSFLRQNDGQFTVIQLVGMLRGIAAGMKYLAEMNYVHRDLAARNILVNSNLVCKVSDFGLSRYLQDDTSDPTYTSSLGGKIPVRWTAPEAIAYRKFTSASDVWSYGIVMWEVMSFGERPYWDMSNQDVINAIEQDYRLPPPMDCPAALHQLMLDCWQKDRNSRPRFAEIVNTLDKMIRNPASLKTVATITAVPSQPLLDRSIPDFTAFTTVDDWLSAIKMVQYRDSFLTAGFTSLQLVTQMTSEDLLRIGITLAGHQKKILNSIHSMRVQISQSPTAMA
assay: phosphorylation enrichment, bacterial display (enrichment ratio); higher = better substrate or ligand; peptides without Tyr show the background
test.readout: phosphorylation enrichment
Quick one: just the number, no unit, thanks!

Completed entries (count: 5):
EFITRYIDSLK [PSMA7_Y110_A112D_YF] yielded phosphorylation enrichment of 0.425

// phosphorylation enrichment value for ALAPKYHGGGG [HBB_Y146_H144P] : 0.315

Measured phosphorylation enrichment, RHLLRYLSWTV [CLCNKB_Y93_S88R] : 0.712

The reported phosphorylation enrichment of the sequence QAFSWYQHQRA [NDST1_Y714_R709Q_YF] was 1.03

Note to self: phosphorylation enrichment recorded for NESVDYRATFP [MET_Y1003] was 0.421

***
Input RIILLYIFLKN [STXBP1_Y411] . Output phosphorylation enrichment: 0.298

phosphorylation enrichment for NFYEYYVDDPL [GCHFR_Y48_P53L] is 6.99

phosphorylation enrichment reading for DPLLTYRFPPK [LMNA_Y481] : 0.422

Value of measured phosphorylation enrichment for the entry TFRPPYYHRDC [HGD_Y333_N337D] : 0.834

// phosphorylation enrichment value for YYSSEYHYVGG [CTSC_Y345] : 15.5

Looking up QPEDIYHQTWA [GBA_Y244_G241E] , I see its phosphorylation enrichment listed as 0.843
